B1: HDV Ribozyme (parent)
chain: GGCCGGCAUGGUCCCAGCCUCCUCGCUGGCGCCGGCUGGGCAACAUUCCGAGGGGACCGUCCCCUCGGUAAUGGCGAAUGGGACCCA

variants of: B1; test: self-cleavage, relative activity (ratio to wild type); higher = more cleavage; co-transcriptional
Everything with self-cleavage lower than 0.2 is Not fulfilled; everything else, including exactly 0.2, is Fulfilled.

| mutantCode | assignedCategory |
| --- | --- |
| G6A G55A | Fulfilled |
| A16U G73C | Fulfilled |
| C58A U79C | Fulfilled |
| G6C A71C | Not fulfilled |
| C3A A87U | Fulfilled |
| G31C U69A | Fulfilled |
| C21G U46C | Not fulfilled |
| G40C A87G | Fulfilled |
